# Tested on: HCT-15
// boundary case: GI50 equal to 20 µM maps to Condition not met; strictly smaller maps to Condition met

Quick check: GI50 of CCCCc1ccc(Nc2nc(Cl)c3[nH]cnc3n2)cc1 under 20 µM?
Condition met

Record CC(=O)NNc1nc(C)c(C(/C=C/c2ccc(NC(C)=O)cc2)=N/NS(=O)(=O)c2ccc(C)cc2)s1 : is its GI50 strictly below 20 µM?
Condition not met

For COC(=O)c1c(C)nc(C)c(NO)c1-c1ccccc1C(F)(F)F , is the recorded GI50 below the cut-off of 20 µM?
Condition met

Just wondering, is GI50 of CCCc1cc(-c2ccc(-c3cc(CCC)c(C=O)[nH]3)s2)[nH]c1C=O below 20 µM?
Condition met

API: query returns whether the compound falls strictly under 20 µM in GI50. Query: NC(=O)C(=O)c1ncn(Cc2ccccc2)c1N
Condition not met

Please indicate whether the reported GI50 of CC1(C)N=c2c(ncn2CCO)=C(C(N)=O)N1 is strictly below 20 µM.
Condition not met

# check: GI50 < 20 µM for ClC1CCC2OOC1O2 (centres undefined)
Condition not met

A record lists COc1ccccc1/C=C1/Sc2scc(CC(=O)Nc3ccccc3)[n+]2C1=O . Is its GI50 below 20 µM?
Condition not met

hey, is GI50 for C/C(=N/CC(=O)O)c1ccccc1 lower than 20 µM or not?
Condition not met

Just wondering, is GI50 of CCN1CCCCCCCCCC(=N/O)/C(=N\O)C1 below 20 µM?
Condition not met

# TODO verify GI50 < 20 µM strictly for this compound: Cc1ccc(/N=N/N(C)C(=O)C(C)N)cc1 (centres undefined)
Condition not met

Dear colleague, could you confirm whether GI50 of CC(C)(C)OC(=O)N1CCC23CCCC2C(=O)CC=C13 (centres undefined) falls below 20 µM? Thanks.
Condition not met

Quick check: does CCOP(=O)(OCC)C(C(=O)OC)C(=O)C(=O)Nc1c(C)cc(Br)cc1C (centres undefined) have GI50 under 20 µM?
Condition not met

In plain terms, does CCOC(=O)C(CC(C)C)NC(=O)C(Cc1ccc(N(CCCl)CCCl)cc1)NC(C)=O (centres undefined) come in under 20 µM for GI50?
Condition met

Does the reported GI50 of CC1(C)OCC(C2OC3OC(C)(C)OC3C2c2ccccc2)O1 (centres undefined) stay below 20 µM?
Condition not met

Please check: GI50 for CN(Cc1cnc2nc(N)nc(N)c2n1)c1ccc(C(=O)NC(CCC(=O)O)C(=O)O)cc1 (centres undefined) , strictly under 20 µM or not?
Condition met

Record OC1=C(c2ccccc2)C2=NCCN2c2ccccc21 : is its GI50 strictly below 20 µM?
Condition not met

Does this compound meet the criterion GI50 < 20 µM? N#CSC#Cc1ccc(C#CSC#N)cc1
Condition met

Lab note: GI50 threshold 20 µM. Does this compound come in strictly under it? O=C(O)CSc1ccc2nc3ccccc3c(O)c2c1
Condition not met

Strictly below 20 µM in GI50? O=c1c2cc(I)ccc2nc(-c2cccs2)n1/N=C/c1ccccc1
Condition not met

# TODO verify GI50 < 20 µM strictly for this compound: CC1=NN(c2ccccc2)C(=O)C1=C1SCCS1
Condition not met

Quick check: GI50 of Cc1ccc(SCC(CF)OC(C)n2cnc3c(O)nc(N)nc32)cc1 (centres undefined) under 20 µM?
Condition not met

Please let me know if COc1ccc(Nc2[nH]c(C(C)=O)c(N)c2C(=S)Nc2ccccc2)cc1 shows GI50 below 20 µM.
Condition not met

I'd appreciate it if you could check whether CCOC(=O)N1Cc2ccoc2C1 has GI50 smaller than 20 µM.
Condition not met
